molecular target: Cannabinoid receptor 1 (Homo sapiens)
Sequence (P21554 whole entry): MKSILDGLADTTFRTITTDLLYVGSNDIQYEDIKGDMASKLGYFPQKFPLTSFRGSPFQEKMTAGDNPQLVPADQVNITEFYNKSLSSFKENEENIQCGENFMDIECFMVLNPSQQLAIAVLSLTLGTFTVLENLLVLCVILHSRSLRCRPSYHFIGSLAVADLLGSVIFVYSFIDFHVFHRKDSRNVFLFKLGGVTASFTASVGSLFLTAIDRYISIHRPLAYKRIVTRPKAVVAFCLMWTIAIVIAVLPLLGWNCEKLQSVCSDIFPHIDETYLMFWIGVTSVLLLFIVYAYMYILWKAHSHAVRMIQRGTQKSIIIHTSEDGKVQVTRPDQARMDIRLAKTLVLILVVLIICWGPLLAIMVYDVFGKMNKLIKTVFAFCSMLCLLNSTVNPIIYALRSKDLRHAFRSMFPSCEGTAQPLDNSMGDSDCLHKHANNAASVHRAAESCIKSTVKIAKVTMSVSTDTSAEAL
pIC50: −log10 of the molar value.
PROPERTY_LABEL: pIC50

Read the entry CC(C)(O)c1ccc(N2Cc3c(ccnc3-c3ccc(F)cc3OCC(F)(F)F)C2=O)cc1 and write its reported pIC50. < 5.00

---

target: Kappa-type opioid receptor (Homo sapiens)
Sequence (P41145 whole entry): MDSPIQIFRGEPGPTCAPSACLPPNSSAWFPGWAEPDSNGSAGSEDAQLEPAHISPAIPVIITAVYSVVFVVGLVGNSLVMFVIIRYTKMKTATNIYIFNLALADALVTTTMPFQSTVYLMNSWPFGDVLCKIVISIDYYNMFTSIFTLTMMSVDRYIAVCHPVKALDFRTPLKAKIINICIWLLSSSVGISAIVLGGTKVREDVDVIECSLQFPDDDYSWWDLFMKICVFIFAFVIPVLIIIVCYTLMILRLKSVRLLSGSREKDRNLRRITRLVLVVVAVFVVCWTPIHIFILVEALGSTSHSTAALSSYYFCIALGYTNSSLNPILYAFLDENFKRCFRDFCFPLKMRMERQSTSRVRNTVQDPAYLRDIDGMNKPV
PROPERTY_LABEL: IC50

Quote Kappa-type opioid receptor (Homo sapiens) IC50 for entry CC(C)(O)c1ccc(N2Cc3c(ccnc3-c3ccc(F)cc3OCC(F)(F)F)C2=O)cc1 . > 10 µM

---

target: Muscarinic acetylcholine receptor M3 (Homo sapiens)
Sequence (P20309 whole entry): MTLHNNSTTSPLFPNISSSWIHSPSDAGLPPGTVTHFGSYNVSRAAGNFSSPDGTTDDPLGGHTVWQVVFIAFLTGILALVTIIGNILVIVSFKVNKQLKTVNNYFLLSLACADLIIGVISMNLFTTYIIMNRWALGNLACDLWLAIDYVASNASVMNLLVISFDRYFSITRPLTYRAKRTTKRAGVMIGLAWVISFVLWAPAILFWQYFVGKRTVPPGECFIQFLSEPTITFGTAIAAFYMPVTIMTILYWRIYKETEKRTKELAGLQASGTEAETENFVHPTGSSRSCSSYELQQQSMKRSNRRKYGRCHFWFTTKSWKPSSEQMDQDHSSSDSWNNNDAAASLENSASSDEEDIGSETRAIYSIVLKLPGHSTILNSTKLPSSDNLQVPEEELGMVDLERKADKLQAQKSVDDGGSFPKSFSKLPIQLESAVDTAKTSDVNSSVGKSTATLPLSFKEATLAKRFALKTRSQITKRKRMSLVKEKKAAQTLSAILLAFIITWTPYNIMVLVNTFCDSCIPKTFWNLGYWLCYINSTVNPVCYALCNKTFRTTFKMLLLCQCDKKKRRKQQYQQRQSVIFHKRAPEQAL
pIC50: −log10 of the molar value.
PROPERTY_LABEL: pIC50

Quote Muscarinic acetylcholine receptor M3 (Homo sapiens) pIC50 for entry CC(C)(O)c1ccc(N2Cc3c(ccnc3-c3ccc(F)cc3OCC(F)(F)F)C2=O)cc1 . < 5.00
